- Test system: A2780
- test.name: Cytotoxicity against human A2780 cells
- Type: cell-based
measurement.kind: pIC50
// pIC50 here means minus log10 of the molar concentration (mol/L)

I would be grateful if you could share the reported pIC50 for C=CC(=C)CC[C@]1(C)[C@H](C)[C@@H](O)[C@H](O)[C@@]23C(=C[C@H](OC(=O)CCC)C[C@@H]12)[C@@H](OC(C)=O)O[C@H]3OC(C)=O [CASEANIGRESCEN B] .
6.08

Another compound to check: C=CC(=C)CC[C@]1(C)[C@H](C)[C@@H](O)[C@H](OC(C)=O)[C@@]23C(=C[C@H](OC(=O)CCC)C[C@@H]12)[C@@H](OC(C)=O)O[C@H]3OC(C)=O [CASEANIGRESCEN C]
6.00

Similarly, C=CC(=C)CC[C@]1(C)[C@H](C)C[C@H](O)[C@@]23C(=C[C@H](OC(=O)CCC)C[C@@H]12)[C@@H](OC(C)=O)O[C@H]3OC(C)=O [CASEANIGRESCEN D] ?
6.00
